Target Entity: free PSA (Homo sapiens)
Sequence (P07288 25-261): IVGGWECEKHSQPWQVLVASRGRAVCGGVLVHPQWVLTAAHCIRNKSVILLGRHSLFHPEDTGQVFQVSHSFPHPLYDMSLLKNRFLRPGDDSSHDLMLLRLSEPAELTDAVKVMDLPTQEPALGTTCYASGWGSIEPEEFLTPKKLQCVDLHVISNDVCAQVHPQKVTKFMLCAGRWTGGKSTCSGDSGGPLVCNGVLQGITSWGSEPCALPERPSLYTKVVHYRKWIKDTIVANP
Protocol Summary: Recognition of oligopeptides by free PSA (time to 50% cleavage, HPLC)
Measurement Setup: free psa, pH 8
Where a SMILES comes first, the peptide text is derived from it. [ ]: non-standard residue; d: D form. The star is where a group is joined. X5 = COCCOCCOCCOCCOCCOCCOCCOCCOCCOCCOCCOCCOCCOCCOCCOCC(=O)*; Decanoyl(3,6,9-trioxa) = COCCOCCOCC(=O)*; hArg = N=C(N)NCCCC[C@H](N)C(=O)O; Chg = N[C@H](C(=O)O)C1CCCCC1; Nle = CCCC[C@H](N)C(=O)O; Glycolyl = O=C(CO)*
Property: Time to 50% Substrate Cleavage by York PSA (min)
The response must be a number in min with no trailing unit.

Past entries and their recorded results:
Compound: COCCOCCOCCOCCOCCOCCOCCOCCOCCOCCOCCOCCOCCOCCOCCOCC(=O)N[C@@H](CO)C(=O)N[C@@H](CCCCNC(=N)N)C(=O)N[C@@H](Cc1ccc(O)cc1)C(=O)N[C@@H](CCC(N)=O)C(=O)N[C@@H](CO)C(=O)N[C@@H](CC(C)C)C(=O)O [PEG(15)-ShRYQ-SL-acid] (X5-S[hArg]YQSL-OH)
Value: 40

Compound: CC(C)C[C@H](NC(=O)[C@H](CO)NC(=O)[C@H](CCC(N)=O)NC(=O)[C@@H](NC(=O)[C@H](CCCCNC(=N)N)NC(=O)[C@H](CO)NC(=O)CO)C1CCCCC1)C(=O)O [2-hydroxyacetyl-ShRChgQ-SL-acid] (Glycolyl-S[hArg][Chg]QSL-OH)
Value: 120

Compound: CCCC[C@H](NC(=O)[C@H](CO)NC(=O)[C@H](CCC(N)=O)NC(=O)[C@H](Cc1ccc(O)cc1)NC(=O)[C@H](CO)NC(=O)[C@H](CO)NC(=O)[C@H](CCCCNC(=N)N)NC(=O)CO)C(=O)O [2-hydroxyacetyl-hRSSYQ-SNle-acid] (Glycolyl-[hArg]SSYQS[Nle]-OH)
Value: 45

Query compound follows.
Field Time to 50% Substrate Cleavage by York PSA (entry COCCOCCOCC(=O)N[C@@H](CO)C(=O)N[C@@H](CO)C(=O)N[C@@H](CO)C(=O)N[C@H](C(=O)N[C@@H](CCC(N)=O)C(=O)N[C@@H](CO)C(=O)N[C@@H](CC(C)C)C(=O)O)C1CCCCC1 [PEG(2)SSSChgQ-SL-acid] ({Decanoyl(3,6,9-trioxa)}-SSS[Chg]QSL-OH) ) reads 150

---

Target Entity: free PSA (Homo sapiens)
Protocol Summary: Recognition of oligopeptides by free PSA (time to 50% cleavage, HPLC)
Measurement Setup: free psa
Where a SMILES comes first, the peptide text is derived from it. [ ]: non-standard residue; d: D form. The star is where a group is joined. Decanoyl(3,6,9-trioxa) = COCCOCCOCC(=O)*; Glyceroyl(2S) = O=C([C@@H](O)CO)*; hArg = N=C(N)NCCCC[C@H](N)C(=O)O; MeOCH2CH2OCH2CO = COCCOCC(=O)*; Chg = N[C@H](C(=O)O)C1CCCCC1; Glycolyl = O=C(CO)*
Property: Time to 50% Substrate Cleavage by York PSA (Min), values marked * (min)
The response must be a number in min with no trailing unit.

Molecule: COCCOCCOCC(=O)N[C@@H](CCCCNC(=N)N)C(=O)N[C@@H](CO)C(=O)N[C@@H](CO)C(=O)N[C@H](C(=O)N[C@@H](CCC(N)=O)C(=O)N[C@@H](CO)C(=O)N[C@@H](CC(C)C)C(=O)O)C1CCCCC1 [PEG(2)-hRSSChgQ-SL-acid] ({Decanoyl(3,6,9-trioxa)}-[hArg]SS[Chg]QSL-OH)
Value: 40
//
Molecule: CC(C)C[C@H](NC(=O)[C@H](CO)NC(=O)[C@H](CCC(N)=O)NC(=O)[C@@H](NC(=O)[C@H](CO)NC(=O)[C@H](CO)NC(=O)[C@H](CCCCNC(=N)N)NC(=O)[C@@H](O)CO)C1CCCCC1)C(=O)O ({Glyceroyl(2S)}-[hArg]SS[Chg]QSL-OH)
Value: 25
//
Molecule: CC(C)C[C@H](NC(=O)[C@H](CO)NC(=O)[C@H](CCC(N)=O)NC(=O)[C@H](Cc1ccc(O)cc1)NC(=O)[C@H](CCCCNC(=N)N)NC(=O)CO)C(=O)O [2-hydroxyacetylhRYQ-SL-acid] (Glycolyl-[hArg]YQSL-OH)
Value: 105
//
Molecule: CC(C)C[C@H](NC(=O)[C@H](CO)NC(=O)[C@H](CCC(N)=O)NC(=O)[C@@H](NC(=O)[C@H](CCCCNC(=N)N)NC(=O)[C@H](CO)NC(=O)CO)C1CCCCC1)C(=O)O [2-hydroxyacetyl-ShRChgQ-SL-acid] (Glycolyl-S[hArg][Chg]QSL-OH)
Value: 30
//
Molecule: COCCOCC(=O)N[C@@H](CO)C(=O)N[C@@H](CCCCNC(=N)N)C(=O)N[C@H](C(=O)N[C@@H](CCC(N)=O)C(=O)N[C@@H](CO)C(=O)N[C@@H](CC(C)C)C(=O)O)C1CCCCC1 [PEG(1)-ShRChgQ-SL-acid] (MeOCH2CH2OCH2CO-S[hArg][Chg]QSL-OH)
Value: 120
//
Molecule: COCCOCCOCC(=O)N[C@@H](CO)C(=O)N[C@@H](CCCCNC(=N)N)C(=O)N[C@@H](Cc1ccc(O)cc1)C(=O)N[C@@H](CCC(N)=O)C(=O)N[C@@H](CO)C(=O)N[C@@H](CC(C)C)C(=O)O [PEG(2)-ShRYQ-SL-acid] ({Decanoyl(3,6,9-trioxa)}-S[hArg]YQSL-OH)
Value: 35
//
Molecule: CC(C)C[C@H](NC(=O)[C@H](CO)NC(=O)[C@H](CCC(N)=O)NC(=O)[C@@H](NC(=O)[C@H](CCCCNC(=N)N)NC(=O)[C@H](CO)NC(=O)[C@@H](O)CO)C1CCCCC1)C(=O)O ({Glyceroyl(2S)}-S[hArg][Chg]QSL-OH)
Value: 35

Query molecule follows.
Field Time to 50% Substrate Cleavage by York PSA (Min), values marked * (entry CC(=O)N[C@@H](CCCCNC(=N)N)C(=O)N[C@@H](CO)C(=O)N[C@@H](CO)C(=O)N[C@H](C(=O)N[C@@H](CCC(N)=O)C(=O)N[C@@H](CO)C(=O)N[C@@H](CC(C)C)C(=O)O)C1CCCCC1 [AChRSSChgQ-SL-acid] (Ac-[hArg]SS[Chg]QSL-OH) ) reads 45

---

Target Entity: free PSA (Homo sapiens)
Protocol Summary: Recognition of oligopeptides by free PSA (time to 50% cleavage, HPLC)
Measurement Setup: free psa, pH 8
Protocol: The oligopeptides prepared as described in Example 1 were individually dissolved in PSA digestion buffer (12 mM tris(hydroxymethyl)-aminomethane pH8.0, 25 mM NaCl, 0.5 mM CaCl2) and the solution added to PSA at a molar ration of 100 to 1. The reaction is quenched after various reaction times by the addition of trifluoroacetic acid (TFA) to a final 1% (volume/volume). The quenched reaction was analyzed by HPLC on a reversed-phase C18 column using an aqueous 0.1% TFA/acetonitrile gradient. […]
Where a SMILES comes first, the peptide text is derived from it. [ ]: non-standard residue; d: D form. The star is where a group is joined. Decanoyl(3,6,9-trioxa) = COCCOCCOCC(=O)*; hArg = N=C(N)NCCCC[C@H](N)C(=O)O; 3Pal = N[C@@H](Cc1cccnc1)C(=O)O; MeOCH2CH2OCH2CO = COCCOCC(=O)*; Chg = N[C@H](C(=O)O)C1CCCCC1; X3 = O=C(C(O)CO)*
Use 40 min as the dividing line for Time to 50% Substrate Cleavage by York PSA, with the line itself on the y side and lower values as n.

Known results for molecules:
Molecule: CC(C)C[C@H](NC(=O)[C@H](CO)NC(=O)[C@H](CCC(N)=O)NC(=O)[C@@H](NC(=O)[C@H](CO)NC(=O)[C@H](CO)NC(=O)[C@H](CO)NC(=O)C(O)CO)C1CCCCC1)C(=O)O (stereo partly shown) [2,3-dihydroxypropionyl-SSSChgQ-SL-acid] (X3-SSS[Chg]QSL-OH)
Target Entity: free PSA (Homo sapiens)
Group: y
//
Molecule: COCCOCCOCC(=O)N[C@@H](CO)C(=O)N[C@@H](CCCCNC(=N)N)C(=O)N[C@H](C(=O)N[C@@H](CCC(N)=O)C(=O)N[C@@H](CO)C(=O)N[C@@H](CC(C)C)C(=O)O)C1CCCCC1 [PEG(2)-S-hRChgQ-SL-acid] ({Decanoyl(3,6,9-trioxa)}-S[hArg][Chg]QSL-OH)
Target Entity: free PSA (Homo sapiens)
Group: n
//
Molecule: COCCOCC(=O)N[C@@H](CO)C(=O)N[C@@H](CCCCNC(=N)N)C(=O)N[C@@H](Cc1ccc(O)cc1)C(=O)N[C@@H](CCC(N)=O)C(=O)N[C@@H](CO)C(=O)N[C@@H](CC(C)C)C(=O)O [PEG(1)-ShRYQ-SL-acid] (MeOCH2CH2OCH2CO-S[hArg]YQSL-OH)
Target Entity: free PSA (Homo sapiens)
Group: y

Does the molecule COCCOCC(=O)N[C@@H](CCCCNC(=N)N)C(=O)N[C@@H](CO)C(=O)N[C@@H](CO)C(=O)N[C@H](C(=O)N[C@@H](CCC(N)=O)C(=O)N[C@@H](CO)C(=O)N[C@@H](CC(C)C)C(=O)O)C1CCCCC1 [PEG(1)-hRSSChgQ-SL-acid] (MeOCH2CH2OCH2CO-[hArg]SS[Chg]QSL-OH) have recorded Time to 50% Substrate Cleavage by York PSA that is 40 min or more?
n

Does the molecule COCCOCCOCC(=O)N[C@@H](Cc1cccnc1)C(=O)N[C@@H](CO)C(=O)N[C@@H](CO)C(=O)N[C@H](C(=O)N[C@@H](CCC(N)=O)C(=O)N[C@@H](CO)C(=O)N[C@@H](CC(C)C)C(=O)O)C1CCCCC1 [PEG(2)-3PAL-SSChgQ-SL-acid] ({Decanoyl(3,6,9-trioxa)}-[3Pal]SS[Chg]QSL-OH) have recorded Time to 50% Substrate Cleavage by York PSA that is 40 min or more?
y
